Source of measurements: ChEMBL document CHEMBL1131307

species: Homo sapiens; assay: In vitro metabolism in human liver microsomes; type: ADME

MOL SMILES: Cc1ccnc2c1NC(=O)c1cccnc1N2C1CC1
Metabolism / pmol/min/mg: 2

* * *

test system: C8166; experiment: Inhibitory activity against HIV-1 IIIB replication in C8166 cells.; type: functional; conditions: Homo sapiens
Reported IC90 values for the following compounds.
ENDPOINT: IC90

MOL SMILES: CCN1c2ncc(CSc3ccccc3)cc2C(=O)N(C)c2ccc(Cl)nc21
RESULT: 13 nM

MOL SMILES: CCN1c2ncc(COc3cccc(N)c3)cc2C(=O)N(C)c2ccc(Cl)nc21
RESULT: 36 nM

MOL SMILES: CCN1c2ncc(COc3ccncc3)cc2C(=O)N(C)c2ccc(Cl)nc21
RESULT: 24 nM

MOL SMILES: CCN1c2ncc(COc3ccccc3)cc2C(=O)N(C)c2ccc(Cl)nc21
RESULT: 113 nM
